TEST_TARGET: JAK1 (Homo sapiens (Human))
Sequence (P23458 875-1153): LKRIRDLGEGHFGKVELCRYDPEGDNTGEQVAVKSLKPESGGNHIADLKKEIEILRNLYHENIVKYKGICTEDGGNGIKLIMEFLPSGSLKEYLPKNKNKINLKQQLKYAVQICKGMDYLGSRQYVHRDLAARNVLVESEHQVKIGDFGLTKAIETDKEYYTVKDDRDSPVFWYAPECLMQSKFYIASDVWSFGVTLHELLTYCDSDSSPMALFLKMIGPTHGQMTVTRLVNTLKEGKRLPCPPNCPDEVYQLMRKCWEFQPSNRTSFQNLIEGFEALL
TEST: Jak biochemical HTRF assay, JAK1
EXPERIMENTAL_CONTEXT: HTRF biochemical assay, recombinant GST-tagged catalytic domain; read-out: JAK1 IC50
Returns the class for an entry based on its IC50. Class ranges: bottom range: < 0.1 nM; center range: ≥ 0.1 nM and < 0.4 nM; top range: ≥ 0.4 nM

Solved cases below.
Exercise: Pick a category. Item: N#C[C@H]1CCCC[C@@H]1n1nc(Nc2cccc(Cn3nccn3)c2)c2c(=O)[nH]ccc21 [Example 3-28]
Key: top range

Exercise: Pick a category. Item: Cc1cc(Nc2nn([C@H]3CCCC[C@@H]3C#N)c3cc[nH]c(=O)c23)ccc1C(C(C)C)n1ccnn1 (single isomer, unassigned) [Example 15-37]
Key: bottom range

Exercise: Pick a category. Item: N#C[C@H]1CCC[C@@H]1n1nc(Nc2ccnc(F)c2)c2c(=O)[nH]ccc21 [Example 3-92]
Key: top range

Exercise: Pick a category. Item: N#C[C@H]1CCCC[C@@H]1n1nc(Nc2ccc(C(O)C(F)(F)F)cc2)c2c(=O)[nH]ccc21 (single isomer, unassigned) [Example 3-9]
Key: bottom range

Exercise: Pick a category. Item: CC1(N2Cc3cc(Nc4nn([C@H]5CCCC[C@@H]5C#N)c5cc[nH]c(=O)c45)ccc3S2(=O)=O)CCOCC1 [Example 15-64]
Key: bottom range

New cases:
Exercise: Pick a category. Item: CC(C)(C)OC(=O)CN1Cc2ccc(Nc3nn([C@H]4CCCC[C@@H]4C#N)c4cc[nH]c(=O)c34)cc2C1 [Example 3-164]
Key: center range

Exercise: Pick a category. Item: Cc1cc(Nc2nn([C@H]3CCCC[C@@H]3C#N)c3cc[nH]c(=O)c23)ccc1C(=O)N1CCCC1 [Example 3-27]
Key: center range

Exercise: Pick a category. Item: N#C[C@H]1CCCC[C@@H]1n1nc(Nc2ccc(F)cc2)c2c(=O)[nH]ccc21 (racemic) [Example 2-1]
Key: top range

Exercise: Pick a category. Item: CC(O)(CO)c1cc(Nc2nn([C@H]3CCCC[C@@H]3C#N)c3cc[nH]c(=O)c23)ccc1S(C)(=O)=O (stereo partly shown) [Example 3-87]
Key: center range

Recorded values, source patent US9725445B2.
